Attribution: paper PMC2688476

Target: low affinity glucocorticoid binding site (LAGS) in rat liver microsomes (Rattus norvegicus, UniProt P70580)
Sequence (P70580 2-195): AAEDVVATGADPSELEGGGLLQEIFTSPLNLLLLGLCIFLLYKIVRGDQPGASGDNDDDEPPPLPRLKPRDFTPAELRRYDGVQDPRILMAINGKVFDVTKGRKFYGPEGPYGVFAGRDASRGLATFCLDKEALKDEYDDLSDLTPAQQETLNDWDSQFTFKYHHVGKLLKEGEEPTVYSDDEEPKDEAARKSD
Assay: Competition with radiolabelled dexamethasone for specific binding to rat liver microsomes (LAGS activity)
Conditions: read-out: IC50% (competition of substituted progestins for binding to rat liver microsomes); Additional file 1; vs radiolabelled dexamethasone
Counter-ions that a name gives are not always drawn.
Measure Name: IC50 (nM)
Lab book: enter the figure in nM, no units written.

query: Using the record for CC(=O)[C@H]1CC[C@H]2[C@@H]3CCC4=CC(=O)CC[C@]4(C)[C@H]3[C@H](O)C[C@]12C [11α-hydroxyprogesterone] , report its IC50.
result: 100

query: Using the record for CC(=O)[C@H]1CC[C@H]2[C@@H]3C[C@@H](O)C4=CC(=O)CC[C@]4(C)[C@H]3CC[C@]12C [6α-hydroxyprogesterone] , report its IC50.
result: 5000

query: Using the record for `COC(=O)[C@H]1CC[C@H]2[C@@H]3CCC4=CC(=O)CC[C@]4(C)[C@H]3CC[C@]12C` , report its IC50.
result: 100

query: Using the record for CC(=O)O[C@@H]1C[C@H]2[C@@H]3CC[C@H](C(C)=O)[C@@]3(C)CC[C@@H]2[C@@]2(C)CCC(=O)C=C12 [6β-progesterone acetate] , report its IC50.
result: 500

query: Using the record for CC(=O)O[C@@H]1C[C@]2(C)[C@@H](C(C)=O)CC[C@H]2[C@@H]2CCC3=CC(=O)CC[C@]3(C)[C@H]21 [11α-progesterone acetate] , report its IC50.
result: 100

query: Using the record for `CC(=O)[C@H]1CC[C@H]2[C@@H]3CCC4=C[C@@H](O)CC[C@]4(C)[C@H]3CC[C@]12C` , report its IC50.
result: 500

query: Using the record for CCC(=O)O[C@H]1CC[C@H]2[C@@H]3CCC4=CC(=O)CC[C@]4(C)[C@H]3CC[C@]12C [testosterone proprionate, reference compound] , report its IC50.
result: 10000

query: Using the record for CC(=O)[C@H]1CC[C@H]2[C@@H]3CCC4=CC(=O)CC[C@]4(C)[C@H]3[C@H](OS(=O)(=O)c3ccc(C)cc3)C[C@]12C [11α-progesterone tosylate] , report its IC50.
result: 10000

query: Using the record for CC(=O)[C@H]1CC[C@H]2[C@@H]3C[C@@H](O)C4=CC(=O)CC[C@]4(C)[C@H]3CC[C@]12C [6β-hydroxyprogesterone] , report its IC50.
result: 10000

query: Using the record for `CCOC(=O)[C@H]1CC[C@H]2[C@@H]3CCC4=CC(=O)CC[C@]4(C)[C@H]3CC[C@]12C` , report its IC50.
result: 100

query: Using the record for C[C@]12CCC(=O)C=C1CC[C@@H]1[C@@H]2CC[C@]2(C)C(=O)CC[C@@H]12 [androstenedione, reference compound] , report its IC50.
result: 5000

query: Using the record for CC(=O)O[C@@H]1C=C2CC[C@H]3[C@@H]4CC[C@H](C(C)=O)[C@@]4(C)CC[C@@H]3[C@@]2(C)CC1 [4 pregnene-3β-ol-20-one acetate] , report its IC50.
result: 500
